- targetOrSystem: μ-opioid receptors in the guinea pig ileum (Cavia porcellus)
- Sequence (A0ACM8Q262 1-400): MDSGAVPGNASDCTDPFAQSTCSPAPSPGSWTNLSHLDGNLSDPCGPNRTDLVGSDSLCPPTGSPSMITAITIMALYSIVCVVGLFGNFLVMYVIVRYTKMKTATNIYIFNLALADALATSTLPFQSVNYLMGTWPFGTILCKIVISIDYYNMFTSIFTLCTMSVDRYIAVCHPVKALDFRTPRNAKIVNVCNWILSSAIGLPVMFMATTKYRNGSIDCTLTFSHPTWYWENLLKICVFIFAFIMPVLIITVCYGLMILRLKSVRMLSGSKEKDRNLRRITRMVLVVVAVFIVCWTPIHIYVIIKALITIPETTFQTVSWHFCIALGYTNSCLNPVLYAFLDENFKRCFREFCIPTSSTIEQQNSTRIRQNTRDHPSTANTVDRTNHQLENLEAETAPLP
- runDescription: Field-stimulated guinea pig ileum, evaluation of agonist activity
- assayContext: read-out: Agonist activity EC50 value; concentration producing a half-maximum response; guinea pig ileum
pEC50: −log10 of the molar value.

{"compound": "CC(C)=CC[N+]1(C)CC[C@]23c4c5ccc(O)c4O[C@H]2C(=O)CC[C@@]3(O)[C@H]1C5.[I-] (stereo partly drawn) [(S)-DMAM]", "pEC50": 5.89}
